Test: Single ascending oral doses of CHP (Study 1001-68) and single IV dose (Study 0302-72): pharmacokinetics and safety in healthy volunteers
Type: in vivo, human
Details: male, human; healthy subjects, plasma, after oral administration of CHP 2 g-12 g
Method: study title Safety, tolerability and pharmacokinetic profile of single ascending doses of oral cis-4-hydroxy-L-proline (CHP) in healthy volunteers Galmed study no. 1001-68-. Results FIGS. 3 and 4. […] The following safety parameters were determined at the pre- and post-study examinations: • 1. […] Adverse events (Signs and Symptoms) have been recorded in each of the two treatment periods.
readout.type: Tmax (h)
All answers are understood in h, so give the number only.

{"compound": "O=C(O)[C@@H]1C[C@H](O)CN1 [CHP, cis-4-hydroxy-L-proline]", "output.unit": "h", "Tmax": 1.24}

Give the measured Tmax for O=C(O)[C@@H]1C[C@@H](O)CN1 [THP, trans-4-hydroxy-L-proline]
4.92

---

assay: Single ascending oral doses of CHP (Study 1001-68) and single IV dose (Study 0302-72): pharmacokinetics and safety in healthy volunteers; type: in vivo, human; conditions: male, human, in vivo; healthy subjects, after oral administration of CHP 2 g-12 g; read-out: Elimination half life (average) (converted)
# half-life annotations
All answers are understood in h, so give the number only.

Give the measured half-life for O=C(O)[C@@H]1C[C@H](O)CN1 [CHP, cis-4-hydroxy-L-proline]
3.7

Give the measured half-life for O=C(O)[C@@H]1C[C@@H](O)CN1 [THP, trans-4-hydroxy-L-proline]
14.8

---

test: Multiple dose ascending bioavailability and safety study (Phase I) with oral CHP (Study 0202-71); type: in vivo, human; settings: male, human; plasma, healthy subjects, oral 4×2.0 g CHP/day
readout.type: Tmax (h)
All answers are understood in h, so give the number only.

{"molecule": "O=C(O)[C@@H]1C[C@@H](O)CN1 [THP, trans-4-hydroxy-L-proline]", "Tmax (h)": 1.5}

Then this molecule:
Give the measured Tmax for O=C(O)[C@@H]1C[C@H](O)CN1 [CHP, cis-4-hydroxy-L-proline]
0.98

---

experiment: Single ascending oral doses of CHP (Study 1001-68) and single IV dose (Study 0302-72): pharmacokinetics and safety in healthy volunteers; format: in vivo, human; conditions: male, human, in vivo; healthy subjects, after oral administration of CHP 2 g-12 g; read-out: Mean residence time (MRT) (average)
readout.type: MRT (h)
All answers are understood in h, so give the number only.

Give the measured MRT for O=C(O)[C@@H]1C[C@H](O)CN1 [CHP, cis-4-hydroxy-L-proline]
4.15

---

assay: Multiple dose ascending bioavailability and safety study (Phase I) with oral CHP (Study 0202-71); format: in vivo, human; conditions: male, human; plasma, healthy subjects, oral 4×2.0 g CHP/day; read-out: MRT (0-inf)
readout.type: MRT inf (h)
All answers are understood in h, so give the number only.

{"molecule": "O=C(O)[C@@H]1C[C@H](O)CN1 [CHP, cis-4-hydroxy-L-proline]", "assay.result": 9.33}

Then this molecule:
Give the measured MRT inf for O=C(O)[C@@H]1C[C@@H](O)CN1 [THP, trans-4-hydroxy-L-proline]
19.1

---

# Cmax annotations
test: Multiple dose ascending bioavailability and safety study (Phase I) with oral CHP (Study 0202-71); format: in vivo, human; details: male, human; plasma, healthy subjects, oral 4×2.0 g CHP/day

{"compound": "O=C(O)[C@@H]1C[C@@H](O)CN1 [THP, trans-4-hydroxy-L-proline]", "Cmax": "9560 ng/mL"}

Then this compound:
Give the measured Cmax for O=C(O)[C@@H]1C[C@H](O)CN1 [CHP, cis-4-hydroxy-L-proline]
52300 ng/mL

---

experiment: Single ascending oral doses of CHP (Study 1001-68) and single IV dose (Study 0302-72): pharmacokinetics and safety in healthy volunteers; format: in vivo, human; conditions: male, human, blood; healthy subjects, after oral administration of CHP 2 g-12 g; read-out: Mean residence time (MRT) (average)
readout.type: MRT (h)
All answers are understood in h, so give the number only.

Give the measured MRT for O=C(O)[C@@H]1C[C@@H](O)CN1 [THP, trans-4-hydroxy-L-proline]
23.2
